Value source: patent US4241056A

- METHOD_DESCRIPTION: Serum (blood) level in rats
- Type: in vivo
- EXPERIMENTAL_SETUP: rat, oral 100 mg/kg, 60 min., average from 3 rats
Give log10 of concentration at 1 h for every item shown.
Parameter value (number): base-10 log of concentration at 1 h in ng/mL.

# log10 of concentration at 1 h of CC1(C)S[C@@H]2[C@H](NC(=O)[C@H](NC(=O)Nc3cnc(Nc4ccccc4)nc3O)c3ccc(O)cc3)C(=O)N2[C@H]1C(=O)O = 2.78

# log10 of concentration at 1 h of CC1(C)S[C@@H]2[C@H](NC(=O)[C@H](NC(=O)Nc3cnc(Cc4ccc(Cl)cc4)nc3O)c3ccc(O)cc3)C(=O)N2[C@H]1C(=O)O = 3.61

# log10 of concentration at 1 h of CC1(C)S[C@@H]2[C@H](NC(=O)[C@H](NC(=O)Nc3cncnc3O)c3ccc(O)cc3)C(=O)N2[C@H]1C(=O)O = 3.98

# log10 of concentration at 1 h of CC(=O)Nc1ncc(NC(=O)N[C@@H](C(=O)N[C@@H]2C(=O)N3[C@@H]2SC(C)(C)[C@@H]3C(=O)O)c2ccc(O)cc2)c(O)n1 = 4.14

# log10 of concentration at 1 h of Cc1ncc(NC(=O)N[C@@H](C(=O)N[C@@H]2C(=O)N3[C@@H]2SC(C)(C)[C@@H]3C(=O)O)c2ccc(O)cc2)c(O)n1 = 4.27

# log10 of concentration at 1 h of CC1(C)S[C@@H]2[C@H](NC(=O)[C@H](NC(=O)Nc3cnc(C4CC4)nc3O)c3ccc(O)cc3)C(=O)N2[C@H]1C(=O)O = 3.68

# log10 of concentration at 1 h of CC1(C)S[C@@H]2[C@H](NC(=O)[C@H](NC(=O)N3CCNC3=O)c3ccccc3)C(=O)N2[C@H]1C(=O)O [Q, reference compound] = 2.78
